- Test system: Acinetobacter baumannii strains
- assayNotes: Antibiotic susceptibility test (CLSI disk diffusion test method, read per CLSI 2016); note: key: ‘S’ means susceptible; ‘I’ means intermediate; ‘R’ means resistant
- Format: cell-based
- setupConditions: host strain YMC17/01/B13454
endpoint: antibiotic susceptibility S/I/R

C[C@@H](O)[C@H]1C(=O)N2C(C(=O)O)=C(S[C@@H]3CN[C@H](C(=O)N(C)C)C3)[C@H](C)[C@H]12 R
CC(C)(O/N=C(\C(=O)N[C@@H]1C(=O)N2C(C(=O)[O-])=C(C[n+]3ccccc3)CS[C@H]12)c1csc(N)n1)C(=O)O R
CCN1CCN(C(=O)N[C@@H](C(=O)N[C@@H]2C(=O)N3[C@@H]2SC(C)(C)[C@@H]3C(=O)O)c2ccccc2)C(=O)C1=O R
NCC[C@H](O)C(=O)N[C@@H]1C[C@H](N)[C@@H](O[C@H]2O[C@H](CN)[C@@H](O)[C@H](O)[C@H]2O)[C@H](O)[C@H]1O[C@H]1O[C@H](CO)[C@@H](O)[C@H](N)[C@H]1O R

For `CN(C)c1ccc(O)c2c1C[C@H]1C[C@H]3[C@H](N(C)C)C(O)=C(C(N)=O)C(=O)[C@@]3(O)C(O)=C1C2=O` , write its antibiotic susceptibility S/I/R.
S

---

- System: Acinetobacter baumannii strains
- assayNotes: Antibiotic susceptibility test (CLSI disk diffusion test method, read per CLSI 2016); note: key: ‘S’ means susceptible; ‘I’ means intermediate; ‘R’ means resistant
- Assay type: cell-based
- setupConditions: host strain YMC14/01/R3007
endpoint: antibiotic susceptibility class

Example entries and their recorded answers appear below.
compound	antibiotic susceptibility class
C[C@@H](O)[C@H]1C(=O)N2C(C(=O)O)=C(S[C@@H]3CN[C@H](C(=O)N(C)C)C3)[C@H](C)[C@H]12 [Meropenem, meropenem]	R
CN(C)c1ccc(O)c2c1C[C@H]1C[C@H]3[C@H](N(C)C)C(O)=C(C(N)=O)C(=O)[C@@]3(O)C(O)=C1C2=O [Minocycline, minocycline]	S
CCN1CCN(C(=O)N[C@@H](C(=O)N[C@@H]2C(=O)N3[C@@H]2SC(C)(C)[C@@H]3C(=O)O)c2ccccc2)C(=O)C1=O [Piperacillin, piperacillin]	R
C[C@@H](O)[C@H]1C(=O)N2C(C(=O)O)=C(SCCN=CN)C[C@H]12 [Imipenem, imipenem]	R
CO/N=C(\C(=O)N[C@@H]1C(=O)N2C(C(=O)O)=C(COC(C)=O)CS[C@H]12)c1csc(N)n1 [Cefotaxime, cefotaxime]	R

Note: attention shifts to another entry.
Give Acinetobacter baumannii strains antibiotic susceptibility class for the following compound: C[C@H]1COc2c(N3CCN(C)CC3)c(F)cc3c(=O)c(C(=O)O)cn1c23 [Levofloxacin, levofloxacin]
R

---

- Tested on: Acinetobacter baumannii strains
- assayNotes: Antibiotic susceptibility test (CLSI disk diffusion test method, read per CLSI 2016); note: key: ‘S’ means susceptible; ‘I’ means intermediate; ‘R’ means resistant
- Format: cell-based
- setupConditions: host strain YMC14/03/R217
endpoint: antibiotic susceptibility class

Example entries and their recorded answers appear below.
C[C@H]1COc2c(N3CCN(C)CC3)c(F)cc3c(=O)c(C(=O)O)cn1c23 R
CC(C)(O/N=C(\C(=O)N[C@@H]1C(=O)N2C(C(=O)[O-])=C(C[n+]3ccccc3)CS[C@H]12)c1csc(N)n1)C(=O)O R
CN(C)c1cc(NC(=O)CNC(C)(C)C)c(O)c2c1C[C@H]1C[C@H]3[C@H](N(C)C)C(O)=C(C(N)=O)C(=O)[C@@]3(O)C(O)=C1C2=O S
NCC[C@H](O)C(=O)N[C@@H]1C[C@H](N)[C@@H](O[C@H]2O[C@H](CN)[C@@H](O)[C@H](O)[C@H]2O)[C@H](O)[C@H]1O[C@H]1O[C@H](CO)[C@@H](O)[C@H](N)[C@H]1O R
C[C@@H](O)[C@H]1C(=O)N2C(C(=O)O)=C(S[C@@H]3CN[C@H](C(=O)N(C)C)C3)[C@H](C)[C@H]12 R

Note: attention shifts to another entry.
For `CO/N=C(\C(=O)N[C@@H]1C(=O)N2C(C(=O)O)=C(COC(C)=O)CS[C@H]12)c1csc(N)n1` , write its antibiotic susceptibility class.
R
